Target: RORC2 ligand binding domain (6-His-RORC2 LBD) (Homo sapiens (Human))
Experiment: Assay of co-activator recruitment by TR-FRET
Details: 6-His-RORC2 LBD / biotin-coactivator peptide SRC1-2 interaction, 3 hr room temperature
Description: The activity of compound of the invention can be determined by a co-activator recruitment by TR-FRET (time-resolved fluorescence resonance energy transfer) assay. […] When receptor and coactivator are bound to each other, upon shining light at 337 nm on the sample, the Europium emits fluorescence that excites APC due to close proximity (FRET) and this signal is measured at 665 nm. […] Inhibitors of the interaction of receptor and coactivator peptide are detected by a decrease in TR-FRET signal. […]
MEASUREMENT TYPE: pIC50
# pIC50 is unitless: minus log10 of the molar concentration; print number only

What is its pIC50 for RORC2 ligand binding domain (6-His-RORC2 LBD) (Homo sapiens (Human))? Entry: Cc1nn(C)c(C)c1S(=O)(=O)Nc1ccc2c(c1)c([C@@H]1CCN(C(=O)[C@H](C)C3CCCC3)C[C@@H]1C)cn2C (single isomer, unassigned)
8.60

Try C[C@@H](C(=O)N1CCC(c2cn(C)c3ccc(NS(=O)(=O)c4ccc(F)cc4)cc23)CC1)C12CC(C1)C2 next.
8.62

Queued: CC(C)CC(=O)N1CCC(c2cn(C)c3ccc(NS(=O)(=O)c4ccc(F)cc4)cc23)CC1
8.11

And then Cn1cc([C@@H]2CCN(C(=O)C3CCCC3)C(C)(C)C2)c2cc(NS(=O)(=O)c3ccc(F)cc3)ccc21 (single isomer, unassigned) , what is it?
8.43

Consider next the compound C[C@H]1CN(C(=O)[C@H](C)C(C)(C)C)CC[C@H]1c1cn(C)c2ccc(NS(=O)(=O)c3ccc(F)cc3)cc12 in the same way.
8.09

Cool, now Cn1cc(C2CCN(C(=O)C3CCC3)CC2)c2cc(NS(=O)(=O)c3ccc(F)cc3)ccc21
7.54

* * *

biological target: RORC2 ligand binding domain (6-His-RORC2 LBD) (Homo sapiens (Human), UniProt P51449); experiment: Assay of co-activator recruitment by TR-FRET; conditions: 6-His-RORC2 LBD / biotin-coactivator peptide SRC1-2 interaction, 3 hr room temperature
Sequence (P51449 269-508): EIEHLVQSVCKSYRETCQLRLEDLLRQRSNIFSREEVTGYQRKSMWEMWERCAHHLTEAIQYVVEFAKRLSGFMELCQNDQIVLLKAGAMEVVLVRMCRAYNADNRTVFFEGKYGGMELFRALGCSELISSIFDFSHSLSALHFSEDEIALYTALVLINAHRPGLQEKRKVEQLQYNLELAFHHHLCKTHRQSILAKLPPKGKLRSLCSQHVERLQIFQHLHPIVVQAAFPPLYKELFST
Please provide measured log10 IC50 for the entries that follow.
Scale: decimal log of IC50, IC50 in nM.

Request: log10 IC50, test system RORC2 ligand binding domain (6-His-RORC2 LBD) (Homo sapiens (Human), UniProt P51449), entry CC(C)[C@H](C)C(=O)N1CCC(c2cn(C)c3ccc(NS(=O)(=O)c4ccc(F)cc4)cc23)CC1
0.49

Now try Cc1cccc(F)c1C(=O)N1CCC(c2cn(C)c3ccc(NS(=O)(=O)c4ccc(F)cc4)cc23)CC1 .
0.83

# iterate: CC(CC(=O)N1CCC(c2cn(C)c3ccc(NS(=O)(=O)c4ccc(F)cc4)cc23)CC1)C(F)(F)F (stereo not shown)
1.17

Queued: Cn1cc(C2CCN(C(=O)c3ccns3)CC2)c2cc(NS(=O)(=O)c3ccc(F)cc3)ccc21
1.88

And for COc1cc(S(=O)(=O)Nc2ccc3c(c2)c(C2CCN(C(=O)C(C)C)CC2)cn3C)ccc1F ?
1.03

Again, but for CCOc1ccccc1S(=O)(=O)Nc1ccc2c(c1)c([C@@H]1CCN(C(=O)[C@H](C)C3CCCC3)C[C@@H]1C)cn2C (single isomer, unassigned)
0.04

For Cn1cc(C2CCN(C(=O)C3CCCC3)CC2)c2cc(NS(=O)(=O)c3ccccc3F)ccc21 then?
0.77
